- tested on: T1, huNav1.7α + β1-β2-β3 (human Nav1.7α co-expressed with human Navβ1, Navβ2 and Navβ3 on cells) (human)
- T1 construct: also called huNav1.7-beta1-beta2-beta3; CHO FlpIn huNav1.7α + β1-β2-β3
- test: binding FACS, CHO FlpIn cells
Examples of binders with documented Bmax follow.
Report only the number, with the unit % understood.

F010302317 (VHH, also called F0103387G04(L11V, A12V, K33R, R39Q, S50Y, S56D, T60A, G73R, W78V, S79Y, T83R, V89L, N93R, D99R, N100cI)-FLAG3-HIS6) VHH: EVQLVESGGGVVQPGGSLRLSCAASGPVFNINRMAWYRQAPGKQRELVAYVTPTGDISYADSVKGRFTISRDRSKRVYLQMNSLRPEDTALYYCRALLQPRSYSITRTYWGQGTLVTVSS	91
F010302331 (VHH, also called F0103387G04(L11V, A12V, K33R, R39Q, S50Y, S56D, T60A, G73R, W78V, S79Y, T83R, V89L, N93R, S100R)) VHH: EVQLVESGGGVVQPGGSLRLSCAASGPVFNINRMAWYRQAPGKQRELVAYVTPTGDISYADSVKGRFTISRDRSKRVYLQMNSLRPEDTALYYCRALLQPDRYSNTRTYWGQGTLVTVSS	90
F010302326 (VHH, also called F0103387G04(L11V, A12V, K33R, R39Q, S50Y, S56D, T60A, W78V, S79Y, T83R, V89L, N93R, D99R)) VHH: EVQLVESGGGVVQPGGSLRLSCAASGPVFNINRMAWYRQAPGKQRELVAYVTPTGDISYADSVKGRFTISRDGSKRVYLQMNSLRPEDTALYYCRALLQPRSYSNTRTYWGQGTLVTVSS	89

Now for another entry.
Just so you know, measured Bmax for F010301847 (VHH, also called F0103387G04(L11V, A12V, K33R, R39Q, S50Y, S56D, T60A, G73N, R76N, W78V, S79Y, T83R, V89L, N93R)) VHH: EVQLVESGGGVVQPGGSLRLSCAASGPVFNINRMAWYRQAPGKQRELVAYVTPTGDISYADSVKGRFTISRDNSKNVYLQMNSLRPEDTALYYCRALLQPDSYSNTRTYWGQGTLVTVSS came out at 100
